- TESTED SYSTEM: T1, scHLA-B27-mmH (engineered HLA-B*27 ectodomain in-line fusion protein) (human (HLA-B*2705, beta-2 …))
- T1 construct: also called soluble HLA-B*27 fusion protein
- ASSAY OVERVIEW: SPR (Biacore), mAb captured, 25 C, HBST pH 7.4
MEASURED ENDPOINT: Kd (nM)
A number alone suffices; assume nM.

get_value(item= H4H2560P (antibody, V domains shown) VH: QVQLVQSGAEVKKPGASVKVSCKASGYTFTGYFIHWVRQAPGQGLEWVGWINPTSGGTNYAQKFQGRVTMTRDTSISTAYMEMNSLRSDDTAVYYCARKAGYTSTWFDYWGQGTTVTVSS VL: DIVMTQSPDSLTVSLGERATINCKSSQSVLYSSKNKNYLAWYQQKPGQPPNLLVYWASTRESGVPDRFSGSGSGTDFTLTISSLQAEDVAVYYCQQYYSMITFGQGTRLEIK , readout=Kd) returns 1.47

Reference source for all entries: patent US20130259876A1
